Biological target: T1, Inactive-C1s (Homo sapiens, UniProt P09871)
T1 construct: proenzyme (pro-C1s); also called pro-C1s
T1 sequence (single chain, looked up): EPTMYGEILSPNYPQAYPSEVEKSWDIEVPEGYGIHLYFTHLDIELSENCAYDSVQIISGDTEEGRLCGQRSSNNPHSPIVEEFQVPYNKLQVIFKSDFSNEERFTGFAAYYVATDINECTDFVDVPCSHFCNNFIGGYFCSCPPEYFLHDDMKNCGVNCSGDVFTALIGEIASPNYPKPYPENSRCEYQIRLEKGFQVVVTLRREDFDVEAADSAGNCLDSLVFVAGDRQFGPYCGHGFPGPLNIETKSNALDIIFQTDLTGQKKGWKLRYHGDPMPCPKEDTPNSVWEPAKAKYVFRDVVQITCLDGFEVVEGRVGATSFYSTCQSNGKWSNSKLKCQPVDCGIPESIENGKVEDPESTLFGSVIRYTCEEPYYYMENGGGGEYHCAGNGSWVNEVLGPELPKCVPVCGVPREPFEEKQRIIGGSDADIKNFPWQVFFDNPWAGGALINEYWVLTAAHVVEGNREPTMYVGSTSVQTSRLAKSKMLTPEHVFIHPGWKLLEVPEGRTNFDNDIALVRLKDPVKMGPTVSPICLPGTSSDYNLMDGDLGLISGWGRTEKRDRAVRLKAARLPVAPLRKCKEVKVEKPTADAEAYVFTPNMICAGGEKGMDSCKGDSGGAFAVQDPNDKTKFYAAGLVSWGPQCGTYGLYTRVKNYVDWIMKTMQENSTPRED
Assay: kinetic binding measurement, method not stated; Table 10, pro-C1s
Measured kon, listed per entry.
# value in M⁻¹ s⁻¹; strip the unit string

1. VH3/Vk1 (antibody, V domains shown, member of group m7; also called VH3/Vκ1; VH variant 3 + Vk variant 1) VH: EVMLVESGGGLVKPGGSLRLSCAASGFTFSNYAMSWVRQAPGKGLEWVATISSGGSHTYYLDSVKGRFTISRDNSKDTLYLQMSSLRAEDTALYYCARLFTGYAMDYWGQGTSVTVSS VL: QIVLTQSPAILSLSPGERATMSCTASSSVSSSYLHWYQQKPGKAPKLWIYSTSNLASGVPSRFSGSGSGTFYTLTISSLQAEDFATYYCHQYYRLPPITFGQGTKLEIK | 1.02e+06

Now consider the entry below.
Task: Item under review: VH4/Vk3 (antibody, V domains shown, member of group m7; also called VH4/Vκ3; VH variant 4 + Vk variant 3) VH: EVQLVESGGGLVKPGGSLRLSCAASGFTFSNYAMSWVRQAPGKGLEWVATISSGGSHTYYLDSVKGRFTISRDNSKNTLYLQMNSLRAEDTALYYCARLFTGYAMDYWGQGTLVTVSS VL: QIVLTQSPATLSLSPGERATLSCTASSSVSSSYLHWYQQKPGKAPKLWIYSTSNLASGVPSRFSGSGSGTDYTLTISSLQPEDFATYYCHQYYRLPPITFGQGTKLEIK . Reported kon?
Result: 1.1e+06

Where do the numbers come from? From patent US20150104448A1.
